Tested on: LOX IMVI
Assay: cells
Type: functional, cell-based
Details: Homo sapiens
Description: SANGER: Inhibition of human LOXIMVI cell growth in a cell viability assay.
pIC50: −log10 of the molar value.

[
  {
    "Molecule": "Cc1ccc(NC(=O)c2cccc(C(C)(C)C#N)c2)cc1Nc1ccc2ncn(C)c(=O)c2c1",
    "Value Operator": "<",
    "pIC50": 5.40
  },
  {
    "Molecule": "CC(O)(CS(=O)(=O)c1ccc(F)cc1)C(=O)Nc1ccc(C#N)c(C(F)(F)F)c1 (stereo not drawn) [BICALUTAMIDE]",
    "Value Operator": "<",
    "pIC50": 5.99
  },
  {
    "Molecule": "CCNC(=O)c1noc(-c2cc(C(C)C)c(O)cc2O)c1-c1ccc(CN2CCOCC2)cc1",
    "Value Operator": "=",
    "pIC50": 7.63
  },
  {
    "Molecule": "C/C(O)=C(\\C#N)C(=O)Nc1cc(Br)ccc1Br",
    "Value Operator": "<",
    "pIC50": 4.80
  },
  {
    "Molecule": "NC(=O)c1ncn([C@@H]2O[C@H](COP(=O)(O)O)[C@@H](O)[C@H]2O)c1N",
    "Value Operator": "=",
    "pIC50": 3.03
  },
  {
    "Molecule": "C[C@]12O[C@H](C[C@]1(O)CO)n1c3ccccc3c3c4c(c5c6ccccc6n2c5c31)CNC4=O",
    "Value Operator": "=",
    "pIC50": 6.53
  },
  {
    "Molecule": "O=c1[nH]c2ccccc2n1C1CCN(Cc2ccc(-c3nc4cc5[nH]cnc5cc4nc3-c3ccccc3)cc2)CC1",
    "Value Operator": "<",
    "pIC50": 5.59
  },
  {
    "Molecule": "CC[C@@]1(O)C(=O)OCc2c1cc1n(c2=O)Cc2cc3ccccc3nc2-1",
    "Value Operator": "=",
    "pIC50": 8.43
  }
]

---

Reported IC50 values for a set of molecules
Tested on: LCLC-103H cell line
Test: cells
Format: functional, cell-based
Conditions: Homo sapiens
Description: SANGER: Inhibition of human LCLC-103H cell growth in a cell viability assay.

[
  {
    "Molecule": "NC(=O)c1ncn([C@@H]2O[C@H](COP(=O)(O)O)[C@@H](O)[C@H]2O)c1N",
    "IC50": "1370 µM"
  },
  {
    "Molecule": "CCCS(=O)(=O)Nc1ccc(F)c(C(=O)c2c[nH]c3ncc(Cl)cc23)c1F [PLX-4720]",
    "IC50": "> 10 µM"
  },
  {
    "Molecule": "C[C@]1(c2nc3c(C(N)=O)cccc3[nH]2)CCCN1 [VELIPARIB]",
    "IC50": "> 5 µM"
  },
  {
    "Molecule": "C/C=C(/C)C(=O)O[C@H]1C(C)=C2[C@H]([C@@H]1OC(=O)CCCCCCC)[C@@](C)(OC(C)=O)C[C@H](OC(=O)CCC)[C@@]1(O)[C@H]2OC(=O)[C@@]1(C)O [THAPSIGARGIN]",
    "IC50": "< 0.002 µM"
  },
  {
    "Molecule": "CC[C@@]1(O)C(=O)OCc2c1cc1n(c2=O)Cc2cc3ccccc3nc2-1 [CAMPTOTHECIN]",
    "IC50": "0.0205 µM"
  },
  {
    "Molecule": "O=c1cc(N2CCOCC2)oc2c(-c3cccc4c3sc3ccccc34)cccc12",
    "IC50": "> 2 µM"
  }
]

---

Reported IC50 values for a set of compounds
System: Calu-3;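 further: growth inhibition of human Calu-3 cells, determined with a cell viability assay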
Experiment: cells
Type: functional, cell-based
Settings: Homo sapiens
Description: SANGER: Inhibition of human Calu-3 cell growth in a cell viability assay.

[
  {
    "Compound": "C/C(O)=C(\\C#N)C(=O)Nc1cc(Br)ccc1Br",
    "Measured On": "Calu-3",
    "Value Operator": ">",
    "IC50, µM": 16
  },
  {
    "Compound": "CC(=O)c1c(C)c2cnc(Nc3ccc(N4CCNCC4)cn3)nc2n(C2CCCC2)c1=O [PALBOCICLIB]",
    "Measured On": "Calu-3",
    "Value Operator": ">",
    "IC50, µM": 4
  },
  {
    "Compound": "O=c1[nH]c2ccccc2n1C1CCN(Cc2ccc(-c3nc4cc5[nH]cnc5cc4nc3-c3ccccc3)cc2)CC1",
    "Measured On": "Calu-3",
    "Value Operator": ">",
    "IC50, µM": 2.56
  },
  {
    "Compound": "CC[C@@]1(O)C(=O)OCc2c1cc1n(c2=O)Cc2cc3ccccc3nc2-1 [CAMPTOTHECIN]",
    "Measured On": "Calu-3",
    "Value Operator": "=",
    "IC50, µM": 0.0328
  },
  {
    "Compound": "CC(C)=CC[C@@H](O)C1=CC(=O)c2c(O)ccc(O)c2C1=O [SHIKONIN]",
    "Measured On": "Calu-3",
    "Value Operator": "=",
    "IC50, µM": 1.11
  },
  {
    "Compound": "Cn1c(=O)n(-c2ccc(C(C)(C)C#N)cc2)c2c3cc(-c4cnc5ccccc5c4)ccc3ncc21 [DACTOLISIB]",
    "Measured On": "Calu-3",
    "Value Operator": "=",
    "IC50, µM": 0.072
  }
]

---

Tested on: BOKU;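 further: growth inhibition of the human BOKU cell line, read out by a cell viability assay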
Assay: cells
Format: functional, cell-based
Settings: Homo sapiens
Description: SANGER: Inhibition of human BOKU cell growth in a cell viability assay.
Reported IC50 values for a set of compounds
Endpoint Name: IC50

[
  {
    "Compound": "CC(C)=CC[C@@H](O)C1=CC(=O)c2c(O)ccc(O)c2C1=O [SHIKONIN]",
    "Experimental Result": "1870 nM"
  },
  {
    "Compound": "Cc1[nH]c(/C=C2\\C(=O)Nc3ccc(S(=O)(=O)Cc4c(Cl)cccc4Cl)cc32)c(C)c1C(=O)N1CCC[C@@H]1CN1CCCC1 [PHA-665752]",
    "Experimental Result": "> 2000 nM"
  },
  {
    "Compound": "Cc1n[nH]c2ccc(-c3cncc(OC[C@@H](N)Cc4c[nH]c5ccccc45)c3)cc12 [A-443654]",
    "Experimental Result": "> 1020 nM"
  }
]

---

Tested on: SF-539;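 further: Read-out is a cell viability assay, with IC50 reflecting inhibition of cell growth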
Assay: cells
Type: functional, cell-based
Settings: Homo sapiens
Description: SANGER: Inhibition of human SF539 cell growth in a cell viability assay.
Reported IC50 values for a set of molecules

[
  {
    "Molecule": "C[C@]12O[C@H](C[C@]1(O)CO)n1c3ccccc3c3c4c(c5c6ccccc6n2c5c31)CNC4=O",
    "IC50": "175 nM"
  },
  {
    "Molecule": "N#C/C(=C1/Nc2ccccc2S1)c1ccnc(NCCc2cccnc2)n1",
    "IC50": "> 8000 nM"
  },
  {
    "Molecule": "CCn1c(-c2nonc2N)nc2cnc(Oc3cccc(NC(=O)c4ccc(OCCN5CCOCC5)cc4)c3)cc21 [GSK-269962A]",
    "IC50": "1290 nM"
  },
  {
    "Molecule": "CCCS(=O)(=O)Nc1ccc(F)c(C(=O)c2c[nH]c3ncc(Cl)cc23)c1F",
    "IC50": "> 10000 nM"
  },
  {
    "Molecule": "O=c1[nH]c2ccccc2n1C1CCN(Cc2ccc(-c3nc4cc5[nH]cnc5cc4nc3-c3ccccc3)cc2)CC1",
    "IC50": "> 2560 nM"
  },
  {
    "Molecule": "C[C@]1(c2nc3c(C(N)=O)cccc3[nH]2)CCCN1",
    "IC50": "> 5000 nM"
  }
]

---

Tested on: DMS-79
Test: cells
Format: functional, cell-based
Conditions: Homo sapiens
Description: SANGER: Inhibition of human DMS-79 cell growth in a cell viability assay.
pIC50: −log10 of the molar value.
Reported pIC50 values for a set of molecules
Endpoint Name: pIC50

[
  {
    "Molecule": "Cc1[nH]c(/C=C2\\C(=O)Nc3ccc(S(=O)(=O)Cc4c(Cl)cccc4Cl)cc32)c(C)c1C(=O)N1CCC[C@@H]1CN1CCCC1 [PHA-665752]",
    "Experimental Result": "< 5.70"
  },
  {
    "Molecule": "CC[C@]1(O)C[C@@H]2CN(CCc3c([nH]c4ccccc34)[C@@](C(=O)OC)(c3cc4c(cc3OC)N(C)[C@H]3[C@@](O)(C(=O)OC)[C@H](OC(C)=O)[C@]5(CC)C=CCN6CC[C@]43[C@@H]65)C2)C1 [VINBLASTINE]",
    "Experimental Result": "< 7.00"
  },
  {
    "Molecule": "CO[C@@]12[C@H](COC(N)=O)C3=C(C(=O)C(C)=C(N)C3=O)N1C[C@@H]1N[C@@H]12 [MITOMYCIN]",
    "Experimental Result": 5.61
  },
  {
    "Molecule": "Fc1cc(-c2cc[nH]/c(=N/c3ccc(-n4cnc(N5CCOCC5)n4)cc3)n2)cc(N2CCOCC2)c1",
    "Experimental Result": 5.37
  },
  {
    "Molecule": "C[C@]1(c2nc3c(C(N)=O)cccc3[nH]2)CCCN1 [VELIPARIB]",
    "Experimental Result": "< 5.30"
  },
  {
    "Molecule": "C/C(O)=C(\\C#N)C(=O)Nc1cc(Br)ccc1Br",
    "Experimental Result": "< 4.80"
  },
  {
    "Molecule": "N#C/C(=C1/Nc2ccccc2S1)c1ccnc(NCCc2cccnc2)n1",
    "Experimental Result": "< 5.10"
  }
]
